- Test system: KRAS G12D (Homo sapiens, UniProt P01116, G12D)
- Construct: AsPc-1-KRAS (G12D)-HiBit-KI cell (Pharmaron); host or cells: AsPc-1-KRAS (G12D)-HiBit-KI cells (HiBiT knock-in at the endogenous KRAS locus)
- Sequence (P01116 1-188 isoform P01116-2 G12D): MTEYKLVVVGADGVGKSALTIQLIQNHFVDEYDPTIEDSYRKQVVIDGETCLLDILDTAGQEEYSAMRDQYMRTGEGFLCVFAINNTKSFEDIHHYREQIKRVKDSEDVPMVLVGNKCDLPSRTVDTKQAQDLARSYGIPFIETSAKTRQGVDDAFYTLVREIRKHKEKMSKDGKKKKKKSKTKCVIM
- Test method notes: KRAS G12D HiBit assay
- Type: cell-based
- Measurement context: AsPc-1-KRAS (G12D)-HiBit-KI cell, compound treatment for 24 hours; class symbols
Measurement type: Dmax

compound="CCc1c(F)ccc2cc(O)cc(-c3ncc4c(N5CCC[C@@](C)(O)C5)nc(OC[C@@]56CCCN5[C@H](COC(=O)N5CCC(CC7CCN(c8ccc9c(c8)n(C)c(=O)n9C8CCC(=O)NC8=O)CC7)CC5)CC6)nc4c3F)c12 (stereo partly drawn) [Compound 98]" measurement_type=Dmax observed_measurement="> 50%"
compound="C#Cc1c(F)ccc2cccc(-c3ncc4c(N5CCC[C@@](C)(O)C5)nc(OC[C@@]56CCCN5[C@H](COC(=O)NCCOCCOc5ccc7c(c5)n(C)c(=O)n7C5CCC(=O)NC5=O)CC6)nc4c3F)c12 (stereo partly drawn) [Compound 107]" measurement_type=Dmax observed_measurement="15 to 50%"
compound="C[C@H]1CN(CC(=O)N2CCC(CN3CCC(c4ccc5c(c4)n(C)c(=O)n5C4CCC(=O)NC4=O)CC3)CC2)CCCN1c1nccc(-c2noc([C@@]3(C)CCCc4sc(N)c(C#N)c43)n2)n1 (stereo partly drawn) [Compound 210]" measurement_type=Dmax observed_measurement="15 to 50%"

All values here come from patent US12599672B2.
